target: mGluR5 (Rattus norvegicus, UniProt P31424); assay: Inositol phosphate (phosphatidylinositol) turnover in rat hippocampus slices; type: cell-based; details: rat hippocampus slices; in the presence of GET73 10 nM; read-out: EC50 of L-quisqualate, phosphatidylinositol turnover
Sequence (P31424 21-875 limits assumed): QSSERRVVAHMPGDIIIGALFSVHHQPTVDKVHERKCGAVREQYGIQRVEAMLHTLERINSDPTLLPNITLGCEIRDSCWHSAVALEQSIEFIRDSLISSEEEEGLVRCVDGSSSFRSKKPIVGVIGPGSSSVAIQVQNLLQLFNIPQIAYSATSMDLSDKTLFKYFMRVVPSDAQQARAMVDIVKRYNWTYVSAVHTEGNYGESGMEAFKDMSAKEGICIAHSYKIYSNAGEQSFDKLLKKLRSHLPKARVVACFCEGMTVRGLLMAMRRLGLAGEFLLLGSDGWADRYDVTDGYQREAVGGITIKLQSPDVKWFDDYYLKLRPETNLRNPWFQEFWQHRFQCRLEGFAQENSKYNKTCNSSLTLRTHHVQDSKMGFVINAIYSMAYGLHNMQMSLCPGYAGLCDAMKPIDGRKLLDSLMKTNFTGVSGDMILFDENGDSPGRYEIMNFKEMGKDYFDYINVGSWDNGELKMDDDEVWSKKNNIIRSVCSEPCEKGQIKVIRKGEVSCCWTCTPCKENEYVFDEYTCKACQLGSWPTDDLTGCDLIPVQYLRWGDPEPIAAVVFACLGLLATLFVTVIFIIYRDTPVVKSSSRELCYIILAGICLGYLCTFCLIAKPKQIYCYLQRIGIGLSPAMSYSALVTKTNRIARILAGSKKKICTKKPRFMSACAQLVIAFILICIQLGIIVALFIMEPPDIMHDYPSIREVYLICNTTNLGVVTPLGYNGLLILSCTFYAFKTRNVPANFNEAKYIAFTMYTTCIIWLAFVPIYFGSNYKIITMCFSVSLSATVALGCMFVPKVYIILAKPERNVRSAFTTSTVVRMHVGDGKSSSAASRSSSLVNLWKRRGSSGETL
pEC50: −log10 of the molar value.
reported metric: pEC50

1. N[C@@H](Cn1oc(=O)[nH]c1=O)C(=O)O [L-quisqualate]: 3.96

----------
biological target: mGluR5 (Rattus norvegicus); test: Calcium mobilization (intracellular calcium levels) in primary cultures of rat cortical astrocytes; assay type: cell-based; conditions: GET73 0 (absence), read-out: EC50 of CHPG, intracellular calcium levels
pEC50: −log10 of the molar value.
reported metric: pEC50

1) NC(C(=O)O)c1cc(O)ccc1Cl (racemic) [CHPG, (RS)-2-Chloro-5-hydroxyphenylglycine]: 2.89
